System: T1, monkey antigen protein (monkey CD112R, Uniprot ID: A0A2K5WVV8) (monkey, UniProt A0A2K5WVV8 41-171)
T1 sequence: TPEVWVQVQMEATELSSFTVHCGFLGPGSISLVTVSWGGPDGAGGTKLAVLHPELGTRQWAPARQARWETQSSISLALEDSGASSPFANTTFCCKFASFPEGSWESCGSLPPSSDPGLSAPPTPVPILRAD
Test: ELISA, monkey antigen protein (as Example 6.1)
Assay readout: pEC50
A value of pEC50 is the negative decimal logarithm of a concentration given in moles per litre.

Example binders with recorded pEC50:
C122 (antibody, human IgG1, kappa, V domains shown) VH: EVQLQQSGPEVVKPGASVKISCKASGNTFTDYFINWVKQRHGKSLEWIGDVNPDNGGTNYNQKFKGKATLTVDKSSGTAFMGLRSLTSEDSAVYYCATLFFDSWGQGTTLTVSS VL: DIVMTQSPSSLNVSAGEKVTMSCKSSQSLLNSGNQKNYLAWYQQKPGQPPKLLIYGASTRESGVPDRFTGSGSGTDFTLTISSVQAEDLALYYCQNAHSSPYTFGGGTKLEIKR    10.51
C136 (antibody, human IgG1, kappa, V domains shown) VH: DVQLVESGGGLVKPGGSLKLSCAASGFSFSENYMYWVRQTPEKRLEWVATISDGASYTYYPDNVKGRFTISRDTAKNNLYLQMSHLKSEDTAMYYCTRDELIAPFAYWGQGTLVTVSA VL: DIVMTQSHKFMSTSVGDRVSITCKASQDVGTAVAWFQQKPGQSPKLLIYWASTRHTGVPDRFTGSGSGTDFTLTISNVQSEDLADYFCQQYNSYPWTFGGGTKLEIKR    10.22
C55 (antibody, human IgG1, kappa, V domains shown) VH: EVQLQQSGPELVKPGASVKISCKASGYTFTDYYMSWVKQSHGKSLEWIGDVNPNNGDTSYNQKFKGKATLTVDKSSSTAYMELRSLTSEDSAVYYCAASGLPYVLMDYWGQGTSVTVSS VL: DIQMTQSPASLSASVGETVTITCRASENINSYLAWYQQKQGKSPQLLVYNTKTLTEDVPSRFSGSGSGTQFSLKINSLQPEDFGSYYCQHHYGTPLTFGGGTKLELKR    8.89
C125 (antibody, human IgG1, kappa, V domains shown) VH: EVKLVESGGGLVQPGGSLKLSCAASGFTFSSYTMSWVRQTPEKRLELVAELSNSGGSFHYPDNVKGRFTISRDNAKNTLYLQMSSLKSEDTAMYYCARHNWDVYAMDYWGQGTSVTVSS VL: DIQMSQSPASLSASVGETVTITCRASENVNSYLAWYQQKQGRSPQFLVYNAQTLAEGVPSRFSGGGSGTQFSLKINSLQPEDFGSYYCQHHYGNPTFGGGTKLEIKR    10.10
C31 (antibody, human IgG1, kappa, V domains shown) VH: QIQLQQSGPELVKPGASVKISCKASGYTFTDYYIAWVKQRPGQGLEWIGWIYLGSGHTMYNENFKGKATLTVDTSSSTAYMQLSSLTSEDSAVYFCARDSFYAMDYWGQGTSVTVSS VL: DIVMTQSQKFMSTTVGDRVSITCKASQNVGTAVAWYQQKPGQSPKLLIYSASNRYTGVPDRFTGSGSGTDFTLTISNMQSEDLADYFCQQYSTYLTFGAGTKLELKR    9.92
C69 (antibody, human IgG1, kappa, V domains shown) VH: EVQLQQSGPVLVKPGASVKMSCKASGYRLTDYYMHWVKQSHGKSLEWIGIINPYNGGTSYNQKFKGKATLTVDKSSSTAYMELNSLTSDDSAVYYCARDSSNVGNDMDYWGQGTSVSVSS VL: DIQMTQTTSSLSASLGDRVTISCRASQDISNYLNWYLQKPDGTVKLLIYYSSRLHSGVPSRFSGSGSGTDYSLTINNLEQEDIATYFCQQGNTLPRTFGGGTKLEIRR    10.29

**Q:** Which value of pEC50 has been reported for C120 (antibody, human IgG1, kappa, V domains shown) VH: EVQLQQSGPEVVKPGASVKISCKASGNTLTDYFINWVKQSHGKNLEWIGDINPDNGAGNYNQKFKGKATLTVDKSSGTAFMGLRSLTSEDSAVYYCATLYFDYWGQGTTLTVSS VL: DIVMTQSPSSLSVSTGEKVTMSCRSSQSLLNSGNQKNYLAWYQQKPGQPPKLLIYGASTRESGVPDRFTGSGSGTDFTLTISSVQAEDLAIYYCQNAHTSPYTFGGGTRLEIKR in the records?
**A:** 10.21

**Q:** Which value of pEC50 has been reported for C152 (antibody, human IgG1, kappa, V domains shown) VH: QVQLQQSGTILARPGASVKMSCRASDYTFTDYWIQWIKQRPGQGLEWIGAIFPENGDTRYTQKFKGRATLTADKSSSTAYMQVNSLTSEDSAVYYCATFINYVDYWGQGTTLTVSS VL: QIVLIQSPAIMSASPGEKVTMTCSASSSVNNIHWYQQKSGTSPKRWIYDTTKLTSGVPARFSGSGSGTSYSLTISSMEAEDAATYYCQQWNINPYTFGGGTKLEIKR in the records?
**A:** 10.13

**Q:** Which value of pEC50 has been reported for C13 (antibody, human IgG1, kappa, V domains shown) VH: EVQLQQSGPELVKPGASVKISCKASGYTFTDYFMNWVKQSHGKSLEWIGDINPNNGSPNYNQKFKGRATLTVDKSSSTAYMELRSLTSEDSAVYYCASGYFDVWGTGTTVTVSS VL: DIVMTQSPSSLSVSAGEKVTMSCKSSQSLLNSGTQKNYLAWYQQKPGQPPKLLIYGASTRESGVPDRFTGSGSGTDFTLTISSVQAEDLAVYYCQNDHSYPWTFGGGTKLEIKR in the records?
**A:** 10.23

**Q:** Which value of pEC50 has been reported for C23 (antibody, human IgG1, kappa, V domains shown) VH: QVQLQQSGPELVKPGTSVKISCKASGYTFTDYYINWVKQRPGQGLEWIGWIFPGSGNTYYNEKFKGRATLTVDKSSSTAYMLLSSLTSEDSAVYFCARDGGLRGPFDYWGQGTTLTVSS VL: DIQMTQSPSSLSASLGGKVTITCKASQDINKYIAWFQHKPGKGPRLLIHFTSTLQSGIPSRFSGSGSGGDYSFSISNLEPEDIATYYCLQYDYLYTFGGGTTLEIKR in the records?
**A:** 9.90
